Data provenance is patent US20190248902A1.

assayed-system: T1, recombinant, soluble human ASGR-1 (human, UniProt P07306 62-291)
T1 construct: biotinylated in the binning assay; also called soluble huASGR-1; Soluble ASGR-1 (Amgen)
T1 sequence: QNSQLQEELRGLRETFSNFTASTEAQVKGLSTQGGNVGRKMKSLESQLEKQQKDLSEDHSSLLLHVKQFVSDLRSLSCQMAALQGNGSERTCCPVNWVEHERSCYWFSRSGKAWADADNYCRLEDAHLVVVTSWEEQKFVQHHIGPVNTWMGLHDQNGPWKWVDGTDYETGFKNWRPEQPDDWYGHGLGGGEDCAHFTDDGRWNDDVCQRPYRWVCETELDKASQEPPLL
test: Octet BLI dissociation, pH 7.4 minus calcium
reported-metric: % Change Compared to pH 7.4 + Calcium (%)
Quick note: give the figure in %, leave out the unit.

[in] Query: % Change Compared to pH 7.4 + Calcium; subject: 64B12 (antibody, V domains shown, hybridoma mAb) VH: QLQLQESGPGLVKPSETLSLTCTVSGVSISRSSYYWGWIRQPPGKGLEWIGSIYYSGSTSYNPSLKSRVTISVDTSKNQFSLKLSSVTAADTAVYYCARLDSGWSFDYWGQGTLVTVSS VL: DIQMTQSPSSLSASVGDRVTITCRASQDISNYLNWYQQKPGTAPNLLISDASILETGVPSTFSGSGSGTDFTFTISSLQPEDIATYYCQQSDNLPCSFGQGTKVEIK
[out] 6

[in] I would be grateful if you could share the reported % Change Compared to pH 7.4 + Calcium for 50D4 (antibody, V domains shown, hybridoma mAb) VH: QVQLVQSGAEVKKPGASVKVSCKASGYTFTGYHMHWVRQAPGQGLEWMGWINPNNNATNYAQSFQGRVTLTRDTSISTAYMELSRLRSDDTAVYYCARDGTSSFDFWGQGTLVTVSS VL: DIQMTQSPSSVSASVGDRLTITCRASQGISRWLAWYQQKPGKAPKVLIYAASTLQSGVPSRFSGSGSGTDFTLTISSLQPEDFATYYCQQANSFPFTFGPGTKVDIR .
[out] 6
